Numbers sourced from patent US20030165997.

target: Zif268 zinc finger protein (three fingers) (UniProt P08046 SEQ:1-89); assay: EMSA; Zn2+, Mg2+, pH 7.7, RT; no yeast growth; 1.5-fold repression (Table 8)
OBSERVABLE: pKd
The scale used: pKd is minus the common logarithm of the concentration in molar units.

Task: Note down pKd recorded for GCTT probe (dsDNA) DNA 1: CCGGGTCGTGCTTGGGCGGTACCG DNA 2: TCGACGGTACCGCCCAAGCACGAC
Result: 8.68
